test system: SKMEL-28; assay: MTT antiproliferative assay, melanoma SKMEL-28 cells; type: cell-based; details: Homo sapiens, SK-MEL-28, 72 h, read-out: IC50 values, SKMEL-28
readout.kind: pIC50
Numbers only, as −log10 of the molar value.

Past entries and their recorded results:
N#Cc1c(-c2ccc(Cl)cc2)cc(-c2cccc3ccccc23)nc1NCCN [10a] = 5.75
Cc1nnc2c(C#N)c(-c3cccs3)cc(-c3cccc4ccccc34)n12 [12b] = 5.86
N#Cc1c(-c2cccs2)cc(-c2cccc3ccccc23)nc1NCCN [10b] = 6.17
N#Cc1c(-c2ccc(Cl)cc2)cc(-c2cccc3ccccc23)[nH]c1=O = 6.23
N#Cc1c(-c2cccs2)cc(-c2cccc3ccccc23)[nH]c1=O = 6.17

Kindly give each listed record's pIC50.
1. Cc1cc(=O)[nH]n1-c1nc(-c2cccc3ccccc23)cc(-c2ccc(Cl)cc2)c1C#N [13a]
2. N#Cc1c(-c2cccs2)cc(-c2cccc3ccccc23)[nH]c1=S

Ans.
1. 5.83
2. 5.95

====

tested on: SKMEL-28; test: MTT antiproliferative assay, melanoma SKMEL-28 cells; assay type: cell-based; conditions: Homo sapiens, SK-MEL-28, 72 h, read-out: IC50 values, SKMEL-28
readout.kind: pIC50
Numbers only, as −log10 of the molar value.

Below are worked cases with known answers.
Cc1cc(=O)[nH]n1-c1nc(-c2cccc3ccccc23)cc(-c2cccs2)c1C#N [13b] = 5.87
N#Cc1c(-c2cccs2)cc(-c2cccc3ccccc23)nc1NNC(=O)Cc1ccccc1 [14b] = 5.87
N#Cc1c(-c2ccc(Cl)cc2)cc(-c2cccc3ccccc23)nc1Cl [6a] = 5.73
N#Cc1c(-c2ccc(Cl)cc2)cc(-c2cccc3ccccc23)n(C(=S)Nc2ccccc2)c1=O [5a] = 5.94
N#Cc1c(-c2ccc(Cl)cc2)cc(-c2cccc3ccccc23)[nH]c1=S [7a] = 5.91

Below are 2 compounds. Give each one its pIC50.
1. N#Cc1c(-c2cccs2)cc(-c2cccc3ccccc23)nc1NN [11b]
2. CCCCCCCCN(c1nc(-c2cccc3ccccc23)cc(-c2cccs2)c1C#N)c1nc(-c2cccc3ccccc23)cc(-c2cccs2)c1C#N [8b]

Ans.
5.89
5.90

Report pIC50 for each item below.
1. Cc1nnc2c(C#N)c(-c3ccc(Cl)cc3)cc(-c3cccc4ccccc34)n12 [12a]
2. N#Cc1c(-c2ccc(Cl)cc2)cc(-c2cccc3ccccc23)nc1NN [11a]

Ans.
6.29
6.24

====

tested on: SKMEL-28; assay: MTT antiproliferative assay, melanoma SKMEL-28 cells; format: cell-based; settings: Homo sapiens, SK-MEL-28, 72 h, read-out: IC50 values, SKMEL-28
readout.kind: IC50
Number first, unit second.

See these solved cases before continuing.
CCCCCCCCN(c1nc(-c2cccc3ccccc23)cc(-c2ccc(Cl)cc2)c1C#N)c1nc(-c2cccc3ccccc23)cc(-c2ccc(Cl)cc2)c1C#N = 774 nM
N#Cc1c(-c2cccs2)cc(-c2cccc3ccccc23)nc1Cl = 1370 nM

According to the records, this compound N#Cc1c(-c2cccs2)cc(-c2cccc3ccccc23)n(C(=S)Nc2ccccc2)c1=O displays IC50 of 755 nM
